target.system: SUMO-conjugating enzyme UBC9 (Homo sapiens)
experimental.protocol: blockers of UBC9-mediated SUMO conjugation – biochemical, AlphaScreen, SUMOylation inhibitor project, confirmation (AID 2018)
applied.conditions: AlphaScreen in vitro SUMOylation assay; at 35 µM; stronger effect = higher value
In all, about 1,200 compounds went through this assay and about 600 (50%) were called active. The set was probably picked from earlier hits. Some of the results follow. Potency and affinity values are given separately.

>  <compound>
O=C(NCc1ccccc1)Nc1cccn(Cc2c(F)cccc2Cl)c1=O

>  <inhibition / %>
-15.7

$$$$
>  <compound>
Cc1nc2ccc(NC(=O)NCc3ccco3)cc2s1

>  <inhibition / %>
-8.1

$$$$
>  <compound>
Cc1c(C(=O)O)c(C(=O)O)nc2ccc(N3CCOCC3)cc12

>  <inhibition / %>
-17.6

$$$$
>  <compound>
Cc1ccc(NC2=CC(=O)C(=O)c3ccccc32)cc1

>  <inhibition / %>
100

$$$$
>  <compound>
Clc1ccc(-c2nnc3c4ccccc4nc(N4CCOCC4)n23)cc1Cl

>  <inhibition / %>
4

$$$$
>  <compound>
C=CCN1C(=O)N(/C=C/C)c2cccc3cccc1c23

>  <inhibition / %>
-14.9

$$$$
>  <compound>
COc1cc(=O)n(C)c2c(OCC3OC(C)(C)OC3(C)C)cccc12 (configuration not stated)

>  <inhibition / %>
11.2

$$$$
>  <compound>
O=C1CC(CC(=O)N/N=C/c2ccccc2[N+](=O)[O-])=NN1

>  <inhibition / %>
26.8

$$$$
>  <compound>
CCN(c1ccccc1)S(=O)(=O)c1ccc(Cl)c(NC(=O)COC(=O)c2cc(O)c3ccccc3c2O)c1

>  <inhibition / %>
73

$$$$
>  <compound>
O=C(c1cccc2cccc(O)c12)N1CCCCC1

>  <inhibition / %>
14.8

$$$$
>  <compound>
Nc1nnc(CC(=O)N/N=C/c2cc([N+](=O)[O-])cc(Br)c2O)s1

>  <inhibition / %>
102

$$$$
>  <compound>
O=C(NCc1ccccc1)Nc1cccn(Cc2ccccc2)c1=O

>  <inhibition / %>
3.6

$$$$

###

Listed below: inhibition values for each entry.
target.system: SUMO-conjugating enzyme UBC9 (Homo sapiens) (UniProt P63279)
Sequence (P63279 whole entry, looked up): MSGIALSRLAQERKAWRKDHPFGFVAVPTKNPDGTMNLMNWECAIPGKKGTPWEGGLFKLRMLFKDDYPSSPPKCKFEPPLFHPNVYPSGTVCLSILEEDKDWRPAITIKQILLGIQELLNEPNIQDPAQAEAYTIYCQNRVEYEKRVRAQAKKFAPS
experimental.protocol: blockers of UBC9-mediated SUMO conjugation – biochemical, AlphaScreen, SUMOylation inhibitor project, confirmation (AID 2018)
applied.conditions: AlphaScreen in vitro SUMOylation assay; at 35 µM; stronger effect = higher value
Screen size: about 1,200 compounds; about 600 (50%) were called active. So high a share suggests a set chosen from earlier hits. This is one part of the list. Results with a measured potency or affinity are listed apart.

>  <smiles.record>
CC1=CC(C)(C)N2C(=O)C(=Nc3ccc(O)cc3)c3cccc1c32

>  <target.system>
SUMO-conjugating enzyme UBC9 (Homo sapiens) (UniProt P63279)

>  <inhibition>
95.8% (active)

$$$$
>  <smiles.record>
CSc1ccc(-c2cc(=O)c3ccccc3o2)cc1

>  <target.system>
SUMO-conjugating enzyme UBC9 (Homo sapiens) (UniProt P63279)

>  <inhibition>
-11% (inactive)

$$$$
>  <smiles.record>
O=C(N/N=C/c1cc(Cl)cc([N+](=O)[O-])c1O)c1ccccc1NS(=O)(=O)c1cccs1

>  <target.system>
SUMO-conjugating enzyme UBC9 (Homo sapiens) (UniProt P63279)

>  <inhibition>
101% (active)

$$$$
>  <smiles.record>
Cc1[nH][nH]c(=O)c1C(c1ccc(-c2ccc(Cl)cc2)o1)c1c(C)[nH][nH]c1=O

>  <target.system>
SUMO-conjugating enzyme UBC9 (Homo sapiens) (UniProt P63279)

>  <inhibition>
66.7% (active)

$$$$
>  <smiles.record>
COc1cc2c(cc1OC)C(C)=NC1(CCCCC1)C2

>  <target.system>
SUMO-conjugating enzyme UBC9 (Homo sapiens) (UniProt P63279)

>  <inhibition>
-0.1% (inactive)

$$$$
>  <smiles.record>
CCOCCCN1CN(Cc2ccco2)CNC1=S

>  <target.system>
SUMO-conjugating enzyme UBC9 (Homo sapiens) (UniProt P63279)

>  <inhibition>
4.1% (inactive)

$$$$
>  <smiles.record>
O=C(N/N=C/c1ccc(N2CCOCC2)cc1)c1ccccc1NS(=O)(=O)c1cccs1

>  <target.system>
SUMO-conjugating enzyme UBC9 (Homo sapiens) (UniProt P63279)

>  <inhibition>
17.4% (inactive)

$$$$
>  <smiles.record>
Cc1[nH][nH]c(=O)c1C(c1ccc(-c2ccc(F)cc2)o1)c1c(C)[nH][nH]c1=O

>  <target.system>
SUMO-conjugating enzyme UBC9 (Homo sapiens) (UniProt P63279)

>  <inhibition>
59.6% (active)

$$$$
>  <smiles.record>
Cc1[nH][nH]c(=O)c1C(c1ccc(-c2cccc(Cl)c2)o1)c1c(C)[nH][nH]c1=O

>  <target.system>
SUMO-conjugating enzyme UBC9 (Homo sapiens) (UniProt P63279)

>  <inhibition>
101% (active)

$$$$
>  <smiles.record>
Cc1cccc(C(=O)O)c1NC(=O)c1ccc(F)cc1

>  <target.system>
SUMO-conjugating enzyme UBC9 (Homo sapiens) (UniProt P63279)

>  <inhibition>
2.9% (inactive)

$$$$
